biological target: T1, HLA-A*02:01 (peptide-receptive MHC class I monomer from UV-ligand exchange) (human); experiment: UV-exchange ELISA (anti-b2m); exchange yield grade: + >=10%, ++ >=20%, +++ >=50%, ++++ >=75%
T1 construct: Monomers were captured on streptavidin-coated plates
experimentalEndpoint: peptide exchange yield

Here is how some binders turned out for peptide exchange yield.
- binder: "ILFSEDSTKLFV [peptide ILFSEDSTKLFV (SEQ ID NO 153)]"
  result: "50 to 75%"
- binder: "GLDDRYSLV [peptide GLDDRYSLV (SEQ ID NO 46)]"
  result: "50 to 75%"

Report peptide exchange yield for RLLENMTEVV [peptide RLLENMTEVV (SEQ ID NO 148)] please.
50 to 75%
